System: rice (Oryza sativa L.)
PROTOCOL TEXT: Test Example 2: soil application on the day after sowing, rice
Format: in vivo
PROTOCOL CONDITIONS: 250 g/ha active ingredient, observed 19th to 28th day after application
QUANTITY NAME: Growth inhibition rate (%) Rice
# unit: % | format: bare number

Req: Quick one: Growth inhibition rate (%) Rice of COCCOc1c(S(C)(=O)=O)ccc(C(=O)c2cnn(C(C)C)c2O)c1C ?
Resp: 80

Req: Also COCCOc1c(S(C)(=O)=O)ccc(C(=O)c2c(C)nn(C)c2O)c1C ?
Resp: 10

Req: Also COC(=O)Cc1c(S(C)(=O)=O)ccc(C(=O)c2cnn(C)c2O)c1C ?
Resp: 60

Req: Also Cc1c(C(=O)c2cnn(C)c2O)ccc(S(C)(=O)=O)c1OC(C)C ?
Resp: 0

====

Exercise: state measured Growth inhibition rate (%) Rice for each of the compounds provided.
System: rice (Oryza sativa L.)
PROTOCOL TEXT: Test Example 1: foliar treatment, upland pot test, rice
Type: in vivo
PROTOCOL CONDITIONS: 31 g/ha active ingredient, observed 17th to 25th day after application
# unit: % | format: bare number

Req: Hi! What's the reported Growth inhibition rate (%) Rice for CCCOC(=O)c1c(S(C)(=O)=O)ccc(C(=O)c2cnn(CC)c2O)c1Cl on rice (Oryza sativa L.)?
Resp: 50

Req: Also COCCOc1c(S(C)(=O)=O)ccc(C(=O)c2c(C)nn(C)c2O)c1C ?
Resp: 70

Req: Also COCCOc1c(S(C)(=O)=O)ccc(C(=O)c2c(C)nn(C(C)C)c2O)c1C ?
Resp: 70

====

Tested on: redroot pigweed (Amaranthus retroflexus L.)
PROTOCOL TEXT: Test Example 2: soil application on the day after sowing, redroot pigweed
Format: in vivo
PROTOCOL CONDITIONS: Amaranthus retroflexus, 250 g/ha active ingredient, observed 19th to 28th day after application, read-out: Growth inhibition rate (%) Redroot pigweed
Exercise: state measured inhibition at 250 g/ha for each of the molecules provided.
# unit: % | format: bare number

Req: Quick one: inhibition at 250 g/ha of CCOc1c(S(C)(=O)=O)ccc(C(=O)c2cnn(C)c2O)c1C ?
Resp: 75

Req: Also COc1c(S(C)(=O)=O)ccc(C(=O)c2cnn(C)c2O)c1C ?
Resp: 100

Req: Also Cn1ncc(C(=O)c2ccc(S(C)(=O)=O)c(Cl)c2Cl)c1O ?
Resp: 30

Req: Also CCOC(=O)c1c(S(C)(=O)=O)ccc(C(=O)c2cnn(CC)c2O)c1Cl ?
Resp: 100

Req: Also Cc1c(C(=O)c2cnn(C)c2O)ccc(S(C)(=O)=O)c1C#N ?
Resp: 100

Req: Also CCn1ncc(C(=O)c2ccc(S(C)(=O)=O)c(OCCC3OCCO3)c2Cl)c1O ?
Resp: 90

Req: Also COC(=O)c1c(S(C)(=O)=O)ccc(C(=O)c2cnn(C)c2O)c1C ?
Resp: 100

====

Exercise: state measured Growth inhibition rate (%) Corn for each of the compounds provided.
System: corn (Zea mays L.)
PROTOCOL TEXT: Test Example 2: soil application on the day after sowing, corn
Assay type: in vivo
PROTOCOL CONDITIONS: 250 g/ha active ingredient, observed 19th to 28th day after application
# unit: % | format: bare number

Req: Quick one: Growth inhibition rate (%) Corn of COC(=O)Cc1c(S(C)(=O)=O)ccc(C(=O)c2cnn(C)c2O)c1C [compound 156] ?
Resp: 0

Req: Also CCc1nn(C)c(O)c1C(=O)c1ccc(S(C)(=O)=O)c(OCCOC)c1C [compound 261] ?
Resp: 20

Req: Also CCn1ncc(C(=O)c2ccc(S(C)(=O)=O)c(OCCOC)c2C)c1O [compound 131] ?
Resp: 30

Req: Also Cc1c(C(=O)c2cnn(C)c2O)ccc(S(C)(=O)=O)c1COC(C)C [compound 257] ?
Resp: 0

Req: Also Cc1c(C(=O)c2cnn(C)c2O)ccc(S(C)(=O)=O)c1COCC(F)(F)F [compound 160] ?
Resp: 0

Origin of measurements: patent US20100317528A1
